Origin of measurements: patent US8148391B2

# TEST TARGET: baculovirus-expressed ALK (Homo sapiens, UniProt Q9UM73)
# Construct: host or cells: baculovirus expression system
# Sequence (Q9UM73 19-1620): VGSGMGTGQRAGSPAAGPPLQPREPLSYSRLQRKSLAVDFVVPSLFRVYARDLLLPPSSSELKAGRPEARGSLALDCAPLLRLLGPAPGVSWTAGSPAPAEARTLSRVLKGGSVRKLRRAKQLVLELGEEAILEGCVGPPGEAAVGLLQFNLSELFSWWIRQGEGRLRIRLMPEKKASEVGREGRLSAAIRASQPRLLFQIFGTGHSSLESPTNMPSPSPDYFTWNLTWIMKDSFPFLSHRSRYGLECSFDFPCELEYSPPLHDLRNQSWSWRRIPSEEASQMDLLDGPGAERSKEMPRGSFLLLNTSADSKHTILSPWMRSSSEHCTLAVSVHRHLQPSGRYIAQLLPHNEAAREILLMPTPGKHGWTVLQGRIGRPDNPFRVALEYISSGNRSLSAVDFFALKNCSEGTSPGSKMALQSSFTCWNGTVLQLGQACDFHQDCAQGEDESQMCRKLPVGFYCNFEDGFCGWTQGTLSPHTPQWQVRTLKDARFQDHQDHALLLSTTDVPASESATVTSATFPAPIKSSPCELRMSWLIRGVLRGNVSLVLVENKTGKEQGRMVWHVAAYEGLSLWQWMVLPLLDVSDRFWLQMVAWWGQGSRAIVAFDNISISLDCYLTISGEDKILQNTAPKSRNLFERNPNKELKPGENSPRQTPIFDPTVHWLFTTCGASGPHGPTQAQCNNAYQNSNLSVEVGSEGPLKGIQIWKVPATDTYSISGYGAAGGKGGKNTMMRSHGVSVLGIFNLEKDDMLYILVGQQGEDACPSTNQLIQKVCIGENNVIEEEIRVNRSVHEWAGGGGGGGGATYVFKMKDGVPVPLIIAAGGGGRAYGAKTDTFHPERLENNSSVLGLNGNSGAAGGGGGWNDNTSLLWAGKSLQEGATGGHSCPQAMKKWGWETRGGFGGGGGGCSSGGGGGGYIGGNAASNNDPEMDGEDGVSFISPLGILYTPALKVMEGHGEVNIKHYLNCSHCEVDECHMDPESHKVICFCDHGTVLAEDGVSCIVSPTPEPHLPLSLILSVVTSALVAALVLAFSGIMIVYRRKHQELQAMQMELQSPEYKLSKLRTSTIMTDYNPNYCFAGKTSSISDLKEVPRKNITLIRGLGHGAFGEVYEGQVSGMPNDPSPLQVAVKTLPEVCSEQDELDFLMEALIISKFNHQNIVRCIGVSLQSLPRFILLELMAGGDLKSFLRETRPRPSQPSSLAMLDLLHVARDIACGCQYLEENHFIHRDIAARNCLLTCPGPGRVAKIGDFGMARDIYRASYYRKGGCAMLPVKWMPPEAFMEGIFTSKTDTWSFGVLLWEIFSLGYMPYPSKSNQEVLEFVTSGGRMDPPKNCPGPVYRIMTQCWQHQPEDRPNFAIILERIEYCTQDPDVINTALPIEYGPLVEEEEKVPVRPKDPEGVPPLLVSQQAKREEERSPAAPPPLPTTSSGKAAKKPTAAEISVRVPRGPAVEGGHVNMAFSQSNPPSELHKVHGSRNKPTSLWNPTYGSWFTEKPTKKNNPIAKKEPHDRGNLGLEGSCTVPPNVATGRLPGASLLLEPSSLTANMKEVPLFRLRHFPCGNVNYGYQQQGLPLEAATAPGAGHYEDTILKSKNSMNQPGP
# PROCEDURE SUMMARY: ALK Kinase Assay (ELISA-type, time-resolved fluorescence)
# Type: biochemical
# APPLIED CONDITIONS: ALK kinase inhibition, 1 μM ATP (Km level); read-out: ALK Activity
EXPERIMENTAL ENDPOINT: IC50

Recorded result, `COCCN1CCN(C)c2cc(Nc3ncc(Cl)c(Nc4ccc(N5CCOCC5)cc4OC)n3)c(OC)cc2C1` , IC50: < 100 nM

Recorded result, `CC1(C)CCC(=O)Nc2ccc(Nc3ncc(Cl)c(Nc4ccccc4C(=O)NC4CC4)n3)cc21` , IC50: < 100 nM

Recorded result, CCOC(=O)N1C2CCC1c1c(ccc(Nc3ncc(Cl)c(Nc4ccccc4C(=O)NC)n3)c1Cl)C2 (stereo not shown) , IC50: < 100 nM

Recorded result, `CCN1CCc2ccc(Nc3ncc(Cl)c(N[C@@H]4CCCC[C@H]4NS(C)(=O)=O)n3)cc2CC1` , IC50: < 100 nM

Recorded result, CCN1CCc2ccc(Nc3ncc(Cl)c(NCC(C)NS(C)(=O)=O)n3)cc2CC1 (stereo not shown) , IC50: 100 to 1000 nM

Recorded result, `CNC(=O)c1cccc(Cl)c1Nc1nc(Nc2ccc3c(c2)C(C)(C)CCC(=O)N3)ncc1Cl` , IC50: 100 to 1000 nM

Recorded result, CNC(=O)c1ccccc1Nc1nc(Nc2ccc3c(c2)CCC(N2CCOCC2)CC3)ncc1Cl (stereo not shown) , IC50: < 100 nM

----------
Please go through the items and note down their pIC50.
# TEST TARGET: baculovirus-expressed ALK (Homo sapiens)
# Construct: host or cells: baculovirus expression system
# PROCEDURE SUMMARY: ALK Kinase Assay (ELISA-type, time-resolved fluorescence)
# Type: biochemical
# APPLIED CONDITIONS: ALK kinase inhibition, 1 μM ATP; read-out: ALK Activity
pIC50: −log10 of the molar value.

Recorded result, `COc1cc2c(cc1Nc1ncc(Cl)c(Nc3ccccc3S(=O)(=O)N3CCCC3)n1)NC(=O)CN(CC1CC1)C2` , pIC50: > 7.00

Recorded result, `CNC(=O)c1ccccc1N(C)c1nc(Nc2ccc3c(c2)CCOC(=O)N3C)ncc1F` , pIC50: < 5.00

Recorded result, `CNC(=O)c1cccc(F)c1Nc1nc(Nc2ccc3c(c2)NC(=O)CN(S(C)(=O)=O)C3)ncc1Cl` , pIC50: > 7.00

Recorded result, `COCCN1CCc2ccc(Nc3ncc(Cl)c(Nc4ccc(N5CCOCC5)cc4OCCC#N)n3)cc2CC1` , pIC50: > 7.00

Recorded result, `CN(CCC#N)C(=O)c1ccccc1Nc1nc(Nc2ccc3c(c2)CCCC(=O)N3C)ncc1Cl` , pIC50: > 7.00

Recorded result, `CNC(=O)c1scc(C)c1Nc1nc(Nc2ccc3c(c2)CNC(=O)CC3)ncc1Cl` , pIC50: 5.00 to 6.00

Recorded result, CC1(C)CCC(=O)Nc2cc(Nc3ncc(Cl)c(Nc4ccccc4S(=O)(=O)N4CCC(O)C4)n3)ccc21 (stereo not drawn) , pIC50: > 7.00

Recorded result, `C=CCOc1cc(N2CCOCC2)cc(F)c1Nc1nc(Nc2ccc3c(c2)CCOC(=O)N3C)ncc1Cl` , pIC50: > 7.00

Recorded result, `C#CCNC(=O)c1cccc(F)c1Nc1nc(Nc2ccc3c(c2)OCCCN3C(C)=O)ncc1Cl` , pIC50: > 7.00

----------
Please go through the items and note down their IC50.
# TEST TARGET: c-Met (cytoplasmic domain) (Homo sapiens, UniProt P08581)
# Construct: 10 ng/mL c-Met (cytoplasmic domain, Invitrogen Corporation #PV3143); purchased Invitrogen Corporation PV3143
# Sequence (P08581 956-1390 limits assumed): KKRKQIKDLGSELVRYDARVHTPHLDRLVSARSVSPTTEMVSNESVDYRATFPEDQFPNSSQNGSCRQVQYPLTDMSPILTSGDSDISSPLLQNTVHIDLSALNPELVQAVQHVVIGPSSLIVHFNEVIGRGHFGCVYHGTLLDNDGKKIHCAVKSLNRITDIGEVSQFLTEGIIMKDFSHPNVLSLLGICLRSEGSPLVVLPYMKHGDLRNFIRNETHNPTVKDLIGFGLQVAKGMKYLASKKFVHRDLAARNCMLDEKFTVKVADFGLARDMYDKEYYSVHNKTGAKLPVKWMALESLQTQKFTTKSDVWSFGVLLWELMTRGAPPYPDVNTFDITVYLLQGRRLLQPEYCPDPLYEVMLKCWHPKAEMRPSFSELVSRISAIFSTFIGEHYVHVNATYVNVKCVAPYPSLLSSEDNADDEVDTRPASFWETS
# PROCEDURE SUMMARY: c-Met Kinase Assay (same methods as for ALK, with modifications)
# Type: biochemical
# APPLIED CONDITIONS: 1 μM ATP (Km level); read-out: cMet Activity (c-Met Kinase Inhibition, IC50)
# Description: Briefly, each 96-well plate was coated with 100 μL/well of 10 μg/mL substrate (phospholipase C-γ) in Tris-buffered saline (TBS). […] The reaction was initiated by adding enzyme (30 ng/ml ALK) and was allowed to proceed at 37° C. for 15 minutes. Detection of the phosphorylated product was performed by adding 100 μl/well of Eu-N1 labeled PT66 antibody (Perkin Elmer # AD0041). Data analysis was performed using ActivityBase (IDBS, Guilford, UK). […]

Recorded result, CS(=O)(=O)N[C@@H]1CCCC[C@H]1Nc1nc(Nc2ccc3c(c2)CNCCO3)ncc1Cl [Example 524] , IC50: 1 to 10 µM

Recorded result, COc1c(Nc2ncc(Cl)c(N[C@H]3[C@@H](C(N)=O)[C@@H]4C=C[C@H]3C4)n2)ccc2c1CCC(N1CCCC(O)C1)CC2 (stereo partly shown) [Example 910] , IC50: > 10 µM

Recorded result, COCCNC1CCc2cc(Nc3ncc(Cl)c(Nc4c(OC)ccc5c4CN(S(C)(=O)=O)CC(=O)N5)n3)c(OC)cc2CC1 (stereo not shown) [Example 750] , IC50: > 10 µM

Recorded result, CNS(=O)(=O)c1ccccc1Nc1nc(Nc2cccc3c2N(C)CCN(C)C3=O)ncc1Cl [Example 543] , IC50: > 10 µM

Recorded result, COc1cc2c(cc1Nc1ncc(F)c(NC3C4C=CC(C4)C3C(N)=O)n1)CCN(CC(F)F)CC2 (stereo not shown) [Example 769] , IC50: > 10 µM

Recorded result, CCN1C(=O)CN(CC(=O)N(C)C)Cc2cc(OC)c(Nc3ncc(Cl)c(Nc4ccc(N5CCOCC5)cc4OC)n3)cc21 [Example 727] , IC50: > 10 µM

Recorded result, COCCNC1CCc2ccc(Nc3ncc(Cl)c(N[C@@H]4CCCC[C@H]4NS(C)(=O)=O)n3)c(OC)c2CC1 (single isomer, unassigned) [Example 693] , IC50: > 10 µM

Recorded result, COCCN1CCc2cc(Nc3ncc(Cl)c(Nc4ccc(N5CCN(C)CC5)cc4OC)n3)c(OC)cc2CC1 [Example 790] , IC50: > 10 µM

Recorded result, CNC(=O)c1ccccc1Nc1nc(Nc2ccc3c(c2)CN(CCOC)CCS3)ncc1Cl [Example 522] , IC50: 0.1 to 1 µM

Recorded result, CS(=O)(=O)N[C@@H]1CCCC[C@H]1Nc1nc(Nc2cccc3c2OCCCC3)ncc1Cl [Example 863] , IC50: > 10 µM

Recorded result, COCCN1CCc2ccc(Nc3ncc(Cl)c(Nc4ccccc4-c4nnc(C)s4)n3)cc2CC1 [Example 974] , IC50: 0.1 to 1 µM

Recorded result, CC1(C)CCCOc2c(Nc3ncc(Cl)c(N[C@@H]4[C@H](C(N)=O)[C@H]5C=C[C@@H]4C5)n3)cccc21 [Example 870] , IC50: > 10 µM

Recorded result, NC(=O)[C@@H]1CCCC[C@H]1Nc1nc(Nc2ccc3c(c2)CCC(NCC(F)(F)F)CC3)ncc1Cl (stereo partly shown) [Example 653] , IC50: 0.1 to 1 µM

----------
# TEST TARGET: baculovirus-expressed ALK (Homo sapiens, UniProt Q9UM73)
# Construct: host or cells: baculovirus expression system
# PROCEDURE SUMMARY: ALK Kinase Assay (ELISA-type, time-resolved fluorescence)
# Assay type: biochemical
# APPLIED CONDITIONS: ALK kinase inhibition, 1 μM ATP; read-out: ALK Activity
EXPERIMENTAL ENDPOINT: IC50

Recorded result, `CC(=O)N(C)Cc1ccccc1Nc1nc(Nc2ccc3c(c2)CCOC(=O)N3C)ncc1Cl` , IC50: 1000 to 10000 nM

Recorded result, `COc1cc2c(cc1Nc1ncc(Cl)c(Nc3ccccc3S(=O)(=O)C(C)C)n1)CCN(CC(=O)N1CCOCC1)CC2` , IC50: < 100 nM

Recorded result, `CCN1CCNc2cc(Nc3ncc(Cl)c(Nc4c(F)cccc4C(=O)NC)n3)ccc2C1=O` , IC50: 100 to 1000 nM

Recorded result, `CCN1C(=O)CCC(C)(C)c2ccc(Nc3ncc(Cl)c(Nc4c(F)cc(F)cc4C(=O)NC)n3)cc21` , IC50: < 100 nM

----------
# TEST TARGET: baculovirus-expressed ALK (Homo sapiens)
# Construct: host or cells: baculovirus expression system
# PROCEDURE SUMMARY: ALK Kinase Assay (ELISA-type, time-resolved fluorescence)
# Assay type: biochemical
# APPLIED CONDITIONS: 1 μM ATP (Km level); read-out: ALK Activity (ALK Kinase Inhibition, IC50)
EXPERIMENTAL ENDPOINT: IC50

Entry COCCNC1CCc2cc(Nc3ncc(Cl)c(Nc4c(OC)ccc5c4CN(S(C)(=O)=O)CC(=O)N5)n3)c(OC)cc2CC1 (centres unmarked) under baculovirus-expressed ALK (Homo sapiens) had IC50 of 1 to 10 µM

Entry COCCN1CCc2cc(Nc3ncc(Cl)c(NC4C5C=CC(C5)C4C(=O)N(C)C)n3)c(OC)cc2CC1 (centres unmarked) under baculovirus-expressed ALK (Homo sapiens) had IC50 of < 0.1 µM

Entry `COc1cc2c(cc1Nc1ncc(Cl)c(Nc3ccc(N4CCN(C)CC4)cc3C)n1)CCN(CC(=O)N(C)C)CC2` under baculovirus-expressed ALK (Homo sapiens) had IC50 of < 0.1 µM

Entry COCCN(C)C1CCc2ccc(Nc3ncc(Cl)c(N[C@H]4[C@@H](C(N)=O)[C@@H]5C=C[C@H]4C5)n3)c(OC)c2CC1 (single isomer, unassigned) [Example 700] under baculovirus-expressed ALK (Homo sapiens) had IC50 of < 0.1 µM

Entry COc1c(Nc2ncc(Cl)c(Nc3ccccc3S(=O)(=O)C(C)C)n2)ccc2c1CCC(N1CCOCC1)CC2 (centres unmarked) under baculovirus-expressed ALK (Homo sapiens) had IC50 of < 0.1 µM
